Target Entity: Hypoxia inducible factors; HIF-1-alpha, HIF-2-alpha (Homo sapiens, UniProt Q16665+Q99814)
Assay: Inhibition of HIF1 transcriptional activity in human LN229 cells expressing VEGF-HRE-V6R and coexpressing luciferase, lac Z gene incubated for 1 hr in normoxia condition followed by 24 hrs in hypoxia condition by reporter gene assay
Format: cell-based
Measurement Label: IC50 (µM)

{"Compound Structure": "CC1(C)C=Cc2cc(CN(c3ccc(F)cc3)S(=O)(=O)c3ccc(F)cc3)ccc2O1", "IC50 / µM": 6.6}
{"Compound Structure": "CC1(C)C=Cc2cc(CN(c3ccccc3)S(=O)(=O)c3ccc(F)cc3)ccc2O1", "IC50 / µM": 4.8}
{"Compound Structure": "COc1ccc(S(=O)(=O)N(Cc2ccc3c(c2)C=CC(C)(C)O3)C(C)C)cc1OC", "IC50 / µM": 1.5}
{"Compound Structure": "CC1(C)C=Cc2cc(CN(c3ccccc3)S(=O)(=O)c3ccc([N+](=O)[O-])cc3)ccc2O1", "IC50 / µM": 4.2}
{"Compound Structure": "CC1(C)C=Cc2cc(CN(c3ccc(F)cc3)S(=O)(=O)c3cc(Cl)ccc3Cl)ccc2O1", "IC50 / µM": 8}
{"Compound Structure": "CC1(C)C=Cc2cc(CN(c3ccccc3)S(=O)(=O)c3ccccc3)ccc2O1", "IC50 / µM": 2.7}
{"Compound Structure": "COc1ccc(S(=O)(=O)N(Cc2ccc3c(c2)C=CC(C)(C)O3)c2ccc(F)cc2)cc1OC", "IC50 / µM": 3.2}

[I] CC1(C)C=Cc2cc(CN(c3ccccc3)S(=O)(=O)c3cc(Cl)ccc3Cl)ccc2O1
[II] CC1(C)C=Cc2cc(CN(c3ccc(F)cc3)S(=O)(=O)c3ccc([N+](=O)[O-])cc3)ccc2O1
[ask] Which numeric IC50 is bigger, that of I or that of II ? Select an item and report its label.
[reply] II
(II: 4.8 µM, I: 3.3 µM)

----------
Assay: Aqueous solubility of the compound at pH 7.4
Format: physicochemical
Measurement Label: solubility

Data point: `COc1ccc(S(=O)(=O)N(Cc2ccc3c(c2)C=CC(C)(C)O3)c2ccccc2)cc1OC` ; solubility = < 15 µg/mL

----------
Target Entity: Hypoxia inducible factors; HIF-1-alpha, HIF-2-alpha (Homo sapiens, UniProt Q16665+Q99814)
Assay: Inhibition of HIF1 transcriptional activity in human LN229 cells expressing VEGF-HRE-V6R and coexpressing luciferase, lac Z gene incubated for 1 hr in normoxia condition followed by 24 hrs in hypoxia condition by reporter gene assay
Assay type: cell-based
Measurement Label: IC50 (µM)

Recorded results for 2 compounds are shown here.
{"Compound Structure": "CC(C)N(Cc1ccc2c(c1)C=CC(C)(C)O2)S(=O)(=O)c1ccc([N+](=O)[O-])cc1", "IC50 (µM)": 3}
{"Compound Structure": "COc1ccc(S(=O)(=O)N(Cc2ccc3c(c2)C=CC(C)(C)O3)c2ccccc2)cc1OC", "IC50 (µM)": 1.6}

[I] CC(C)N(Cc1ccc2c(c1)C=CC(C)(C)O2)S(=O)(=O)c1ccc(F)cc1
[II] CC1(C)C=Cc2cc(CN(c3ccc(F)cc3)S(=O)(=O)c3ccccc3)ccc2O1
[III] CC(C)N(Cc1ccc2c(c1)C=CC(C)(C)O2)S(=O)(=O)c1ccccc1
[IV] CC(C)N(Cc1ccc2c(c1)C=CC(C)(C)O2)S(=O)(=O)c1cc(Cl)ccc1Cl
[ask] Given 4 compounds, produce a descending ranking by IC50. Hello, could you send the labels back in the order asked? Thank you.
[reply] IV, II, I, III

From: ChEMBL document CHEMBL2057132
